- EXPERIMENT SUMMARY: yeast display, Sf9 membrane polyspecificity reagent, FACS + sequencing; frameworks hold sequencing errors
MEASURE NAME: polyreactivity (PSR sort gate)

QVQLVVSGGGLVQAGGSLRLSCAASGRTFYANAMGWYRQAPGKERELVAAISTGGDGTYYADSVKGRFTISRDNAKNTVYLQMNSLKPEDTADYYCAVRHRASGILYDYWGQGTQVTVSS
low polyreactivity
QVQLVESAGGLVQSGGSLRLSCPASGRIFYLNAQGWYRQAPGKERELVAAITWSGGRTYYADSVKGRFTISRDYAKNSVYLQMNSLKPEDTAVYYCAAVPRPGPNTVLTPYGYWGQGTQVTVSS
high polyreactivity
QVQLVESGGALVQAGGSLRLSCAASGRIFRGYAMGWYRQAPGKERELVAAISSRGSRTYYADSVKGPFTISRDNAKNTVYLQMNSLKPEDTAVYYCAADVPGVTTSYAPYDSEYWGQGSQVTVSS
high polyreactivity
QVQLVESGGGLVQAGGSLRLSCAASAIIFYKNAMGWYRQAPGKERELVAAITRGGSTNYADSVKGRFTISRDNAKNTVYLQMNSLKPEDTAVYYCDKRWFYTRYPTYDYWGQGTQVTVSS
low polyreactivity
QVQLVESGGGLVQAGGSLRLSCAASGSTFVVNAMGWYRPAQGKERELVAAISRSGTSTYYADSVKGRFTISRDNAKKTVYLQMNSLKPEDSAVYYCNAVGSYYPPDYWGQGTQVTVSS
high polyreactivity
QVQLVESGGGLVQAGGSLRLSCAASGRTFNNYAMGWYRQAPGKERELVASIRKNGGSTYYADSVKGRFTISRDNAKNTVYLQMNSLKPEDTAVYYCGARYWGISRIFPSKYDYWGQGTQVTVSS
high polyreactivity
QVQLVESGGGLVQAGGSLRLSCAASGRTFYSYSMGWYRQEPGQERELVALITWSGGTYYADSVKGRFTISRDNANNTVYLLMNSLKPEDTAVYYCNKYRPYGRIFHRAYGRDYWGQGTQVTVSS
high polyreactivity
QVQLVESGGGVVQAGGSLRLICAASGLTFDKYTMGRYRQAPGKERELVARISTSGSRTYYADSVKGRFTISRDNAKNTVYLQMNSLIPEDTEVYYCNKDGWIRRRRGYDYWGQGTQVTVSS
high polyreactivity

**Q:** Which polyreactivity (PSR sort gate) is listed for `QVQLVESGGGLVQAGGSLRLSCAASGSIFTFNAMGWYRQAPGKERELVASINWSGGSTYYADSVKGRFTISRDNAKNTVYLQMNSLKPEDTAVYYCNKRRNGYGSQFYYPYDYWGQGTQVTVSS` ?
**A:** low polyreactivity

**Q:** Which polyreactivity (PSR sort gate) is listed for `QVQLEESGGGLVQAGGSLRLCCAASGRTFYYAMGWYRQATGKDRYADSVKGRFTISRDNAKNTVYLQMNSLKPDDTSVYYCAAKVTEPPSLDDSDYWGQGTQVTVSS` ?
**A:** low polyreactivity

**Q:** Which polyreactivity (PSR sort gate) is listed for `QVQLVESGGGLVQAGGSLRLSCAASGFTFYRYDMGWYRQAPGQERELVAAITNNGGNTYYADSVKGRFTISRDNAKNTVYLQMNSLKPEDTAVYYCAARTWGRYDYWGQGTQVTVSS` ?
**A:** high polyreactivity
